Molecular target: Bovine pancreatic phospholipase A₂, [Arg⁶]-AMPA (Bos taurus, UniProt P00593, N28R)
Construct: fully ε-amidinated according to the method by Wallace and Harris, Biochem. J., 217, (1984), 589-594, and converted into AMPA
Sequence (P00593 23-145 N28R): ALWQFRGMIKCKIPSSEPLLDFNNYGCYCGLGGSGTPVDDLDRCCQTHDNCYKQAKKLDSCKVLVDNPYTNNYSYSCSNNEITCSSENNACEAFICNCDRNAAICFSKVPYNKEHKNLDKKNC
Assay: Binding to micellar cis-9-octadecenyl phosphocholine by UV absorption difference spectroscopy
Settings: micellar ligand, N = number of lipid monomers per molecule of enzyme, KD = micellar dissociation constant, read-out: N.KD apparent dissociation constant
Endpoint name: Kd (µM)
API: value field is a number in µM; no unit string.

Tested on Bovine pancreatic phospholipase A₂, [Arg⁶]-AMPA (Bos taurus, UniProt P00593, N28R): CCCCCCCC/C=C\CCCCCCCCOP(=O)([O-])OCC[N+](C)(C)C [cis-9-octadecenylphosphocholine] . Observed Kd: 120
